System: 317291-083-R-J1-PDC complex spheroids, viability
Assay: Anticancer human tumor 317291-083-R-J1-PDC patient-derived soft tissue sarcoma cell line growth inhibition [GQUAD]; active means viability on the fitted dose curve at most 10% of control; inactive means the rest
Settings: second compound 3.16 µM; first compound 0.1 µM
Allowed answers: active, inactive

Example cases with answers are listed next.
MOLECULE	GROUP_LABEL
CC(C)n1c(=O)n(C)c2cnc3cc(F)c(-c4ccc(OCCCN5CCCCC5)nc4)cc3c21 + Cc1cnc(CNC(=O)c2c(=O)c3ccc(N4CCCN(C)CC4)nc3n3c2sc2ccccc23)cn1	inactive
CC1COCCN1c1cc(-c2ccnn2C)c2ccnc(-c3ccn[nH]3)c2n1 (stereo not drawn) + Cc1cnc(CNC(=O)c2c(=O)c3ccc(N4CCCN(C)CC4)nc3n3c2sc2ccccc23)cn1	inactive

We next turn to a different molecule, shown below.
Record lookup: outcome of this test for C#Cc1c(F)ccc2cc(O)cc(-c3ncc4c(N5CC6CCC(C5)N6)nc(OCC56CCCN5CC(F)C6)nc4c3F)c12 (stereo not drawn) + CN(C)c1ccc(Nc2c3ccc(NC(=O)CCN4CCCC4)cc3nc3cc(NC(=O)CCN4CCCC4)ccc23)cc1 ?
active

----------
Tested on: 317291-083-R-J1-PDC complex spheroids, viability
Test: Anticancer human tumor 317291-083-R-J1-PDC cell line growth inhibition [GQUAD];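 further: spheroids exposed to compounds for one week before readout; percent viability relative to DMSO vehicle wells taken as 100%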
Conditions: second compound 0.0316 µM; first compound 3.16 µM; stronger effect = lower value
EXPERIMENTAL_ENDPOINT: viability, T/C

Consider the following illustrative entries.
MOLECULE	viability, T/C
Cc1cccc(N(C)C(=O)C2C(O)CCN2c2nc(C)cc(C(F)(F)F)c2C#N)c1 (stereo not given) + Cc1cnc(CNC(=O)c2c(=O)c3ccc(N4CCCN(C)CC4)nc3n3c2sc2ccccc23)cn1	85.2%
CC1COCCN1c1cc(C2(S(C)(=N)=O)CC2)nc(-c2ccnc3[nH]ccc23)n1 (stereo not given) + Cc1[nH]c2ccc(F)cc2c1-c1nc2c3cccnc3c3ncccc3c2[nH]1	27.9%
COc1ccc([C@@H](O)c2cc(-c3ncnc4cc(N5CCOCC5)ccc34)c(F)cc2Cl)nn1 + CN(C)c1ccc(Nc2c3ccc(NC(=O)CCN4CCCC4)cc3nc3cc(NC(=O)CCN4CCCC4)ccc23)cc1	67.4%

Provide viability, T/C value for the following molecule: COc1ncnc(C2CC2)c1-c1ncc2cnn(Cc3ccc(-c4nc(C(F)(F)F)cn4C(C)C)cc3)c2n1 + CN(C)c1ccc(Nc2c3ccc(NC(=O)CCN4CCCC4)cc3nc3cc(NC(=O)CCN4CCCC4)ccc23)cc1
64.3%

Entry COc1ncnc(C2CC2)c1-c1ncc2cnn(Cc3ccc(-c4nc(C(F)(F)F)cn4C(C)C)cc3)c2n1 + Cc1[nH]c2ccc(F)cc2c1-c1nc2c3cccnc3c3ncccc3c2[nH]1 needs its viability, T/C filled in; supply it.
64.3%

----------
System: 317291-083-R-J1-PDC complex spheroids, viability
Assay: Anticancer human tumor 317291-083-R-J1-PDC cell line growth inhibition [GQUAD]; active = viability on the fitted dose curve at most 10% of control; inactive = the rest;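 further: spheroids exposed to compounds for one week before readout; percent viability relative to DMSO vehicle wells taken as 100%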
Settings: second compound 1 µM; first compound 1 µM
Classes to choose from: TRUE (active), FALSE (inactive)

COMPOUND	GROUP_LABEL
COc1ncnc(C2CC2)c1-c1ncc2cnn(Cc3ccc(-c4nc(C(F)(F)F)cn4C(C)C)cc3)c2n1 + Cc1cnc(CNC(=O)c2c(=O)c3ccc(N4CCCN(C)CC4)nc3n3c2sc2ccccc23)cn1	FALSE
C=CC(=O)N1CCN(c2nc(=O)n(-c3c(C)ccnc3C(C)C)c3nc(-c4c(O)cccc4F)c(F)cc23)C(C)C1 (stereo not drawn) + Cc1cnc(CNC(=O)c2c(=O)c3ccc(N4CCCN(C)CC4)nc3n3c2sc2ccccc23)cn1	FALSE

What classification did O=C(c1cc(Cc2n[nH]c(=O)c3ccccc23)ccc1F)N1CCN(C(=O)C2CC2)CC1 + Cc1[nH]c2ccc(F)cc2c1-c1nc2c3cccnc3c3ncccc3c2[nH]1 end up with in this test?
FALSE

Name the outcome recorded for O=C(c1cc(Cc2n[nH]c(=O)c3ccccc23)ccc1F)N1CCN(C(=O)C2CC2)CC1 + CN(C)c1ccc(Nc2c3ccc(NC(=O)CCN4CCCC4)cc3nc3cc(NC(=O)CCN4CCCC4)ccc23)cc1 in the assay.
FALSE

What was the test verdict on CC(C)(O)C1CCC(Nc2ccc3ncc(-c4cccc(C(F)(F)F)c4)n3n2)CC1 (stereo not drawn) + CN(C)c1ccc(Nc2c3ccc(NC(=O)CCN4CCCC4)cc3nc3cc(NC(=O)CCN4CCCC4)ccc23)cc1 ?
TRUE

So what was the verdict on CCCS(=O)(=O)Nc1ccc(F)c(C(=O)c2c[nH]c3ncc(-c4ccc(Cl)cc4)cc23)c1F + Cc1[nH]c2ccc(F)cc2c1-c1nc2c3cccnc3c3ncccc3c2[nH]1 in this test?
FALSE

Check the results log: what was the call for CC1COCCN1c1cc(C2(S(C)(=N)=O)CC2)nc(-c2ccnc3[nH]ccc23)n1 (stereo not drawn) + Cc1[nH]c2ccc(F)cc2c1-c1nc2c3cccnc3c3ncccc3c2[nH]1 ?
FALSE

Call for entry CC1COCCN1c1cc(C2(O)CC3CCC(C2)O3)c2cnn(-c3ccn[nH]3)c2n1 (stereo not drawn) + Cc1[nH]c2ccc(F)cc2c1-c1nc2c3cccnc3c3ncccc3c2[nH]1 :
FALSE

Recorded call for O=c1[nH]cc(F)c(=O)[nH]1 + CN(C)c1ccc(Nc2c3ccc(NC(=O)CCN4CCCC4)cc3nc3cc(NC(=O)CCN4CCCC4)ccc23)cc1 ?
FALSE

Call for entry CC(C)n1c(=O)n(C)c2cnc3cc(F)c(-c4ccc(OCCCN5CCCCC5)nc4)cc3c21 + Cc1[nH]c2ccc(F)cc2c1-c1nc2c3cccnc3c3ncccc3c2[nH]1 :
FALSE

What call does the record list for COc1cc(C2c3cc4c(cc3C(OC3OC5COC(C)OC5C(O)C3O)C3COC(=O)C23)OCO4)cc(OC)c1O (stereo not drawn) + Cc1[nH]c2ccc(F)cc2c1-c1nc2c3cccnc3c3ncccc3c2[nH]1 ?
FALSE

# lookup: test call for CC1COCCN1c1cc(C2(S(C)(=N)=O)CC2)nc(-c2ccnc3[nH]ccc23)n1 (stereo not drawn) + CN(C)c1ccc(Nc2c3ccc(NC(=O)CCN4CCCC4)cc3nc3cc(NC(=O)CCN4CCCC4)ccc23)cc1
FALSE

Kindly provide the recorded test outcome for the following compound: COc1cccc2c1C(=O)c1c(O)c3c(c(O)c1C2=O)CC(O)(C(=O)CO)CC3OC1CC(N)C(O)C(C)O1 (stereo not drawn) + CN(C)c1ccc(Nc2c3ccc(NC(=O)CCN4CCCC4)cc3nc3cc(NC(=O)CCN4CCCC4)ccc23)cc1
TRUE
